B1: TRIM63 (parent)
chain: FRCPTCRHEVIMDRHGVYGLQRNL

Variants of: B1
assayRemarks: protein stability index of a GFP-peptide fusion (GPS, HEK-293T) (PSI 1-6); higher = more stable;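 further: lentivirally expressed fusions sorted by FACS into six bins by GFP to DsRed ratio, PSI derived from sequencing read proportions per bin multiplied by bin number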
conditionInfo: c terminus: a fixed tail appended
Cut-off 2 on protein stability index, inclusive. At or above means T; below means F.

seqString: FRCPTCRHEVIMDRHGMYGLQRNL
class: F

seqString: FRCPTCRHEVIMDRHGVYLLQRNL
class: F

seqString: FRCPTCRHEVIMERHGVYGLQRNL
class: T

seqString: FRCPTCRHEVIMDRHGVDGLQRNL
class: F

seqString: FRCPTCRHEVIMDDHGVYGLQRNL
class: T

seqString: FRCPTCQHEVIMDRHGVYGLQRNL
class: T

seqString: FRCPTCRHEVIMDRHGVYGLIRNL
class: F

seqString: FRCPTCRHEPIMDRHGVYGLQRNL
class: F

seqString: FRCPTCRHEVGMDRHGVYGLQRNL
class: T

seqString: FRCPTCRHEHIMDRHGVYGLQRNL
class: F

seqString: FRCPTCRHEVIMDRGGVYGLQRNL
class: T

seqString: FRCPTCRHEVIMDRHRVYGLQRNL
class: F

seqString: FRCPTCRMEVIMDRHGVYGLQRNL
class: T

seqString: FRCPTCRHEVIMDRHGVYQLQRNL
class: T

seqString: FRCPTCRHEVIMDRHGVRGLQRNL
class: T

seqString: FRCPTCRHEVIMDRHGVYGLQRNY
class: T

seqString: FRCPTCRHEVIMDRKGVYGLQRNL
class: T

seqString: FRLPTCRHEVIMDRHGVYGLQRNL
class: T

seqString: FRCPTCRHEVIMDRHGDYGLQRNL
class: F

seqString: FGCPTCRHEVIMDRHGVYGLQRNL
class: T

seqString: FRCPTCRHFVIMDRHGVYGLQRNL
class: T

seqString: FRCPTCRHEVIMDRHGVVGLQRNL
class: F

seqString: FRCPTCRHEVIMDRHGVYGLQRPL
class: F

seqString: FRCPTCRHEVRMDRHGVYGLQRNL
class: T

seqString: FRCPTCRHEVIMDRHGIYGLQRNL
class: T

seqString: FRCPTCRYEVIMDRHGVYGLQRNL
class: T

seqString: FRCPTCRHEGIMDRHGVYGLQRNL
class: T

seqString: FRCPTCRHEVIMMRHGVYGLQRNL
class: T

seqString: FRCPTVRHEVIMDRHGVYGLQRNL
class: T

seqString: FRCPTCRHEVIMDRHGVYGPQRNL
class: F

seqString: FRCPTCRHEVIMSRHGVYGLQRNL
class: T

seqString: FRCPTCRHEVIMDRHLVYGLQRNL
class: T

seqString: FRCPTCRHEVIMDMHGVYGLQRNL
class: F

seqString: FRCPTCRHEVIMDRHGVYGLQRIL
class: F

seqString: FRCPTCRHEVIMDRHGTYGLQRNL
class: T

seqString: WRCPTCRHEVIMDRHGVYGLQRNL
class: T

seqString: FRTPTCRHEVIMDRHGVYGLQRNL
class: F

seqString: KRCPTCRHEVIMDRHGVYGLQRNL
class: T

seqString: FRCPVCRHEVIMDRHGVYGLQRNL
class: T

seqString: FRCPTCRHEVIYDRHGVYGLQRNL
class: F

seqString: FRCPTCRHEVIMCRHGVYGLQRNL
class: T

seqString: FRRPTCRHEVIMDRHGVYGLQRNL
class: F

seqString: FRCPTCRHEVIMDRHGVYGLQRLL
class: F
